- Test system: Enterococcus faecium
- test-method-notes: Potency index, ratio of vancomycin MIC to test compound MIC for antibacterial activity against VanA-resistant Enterococcus faecium MMX0485 assessed as inhibition of bacterial growth by standard broth microdilution susceptibility method
- Format: functional
test-readout: Ratio
No unit in the answer, only the number.

Q: Param readout= Ratio; system= Enterococcus faecium; entry= CN[C@H](CC(C)C)C(=O)N[C@H]1C(=O)N[C@@H](CC(N)=O)C(=O)N[C@H]2C(=O)N[C@H]3C(=O)N[C@H](C(=O)N[C@H](C(=O)NCCSSCCNC(=O)CCSC(c4ccccc4)(c4ccccc4)c4ccccc4)c4cc(O)cc(O)c4-c4cc3ccc4O)[C@H](O)c3ccc(c(Cl)c3)Oc3cc2cc(c3O[C@@H]2O[C@H](CO)[C@@H](O)[C@H](O)[C@H]2O[C@H]2C[C@](C)(N)[C@H](O)[C@H](C)O2)Oc2ccc(cc2Cl)[C@H]1O ; returns value.
Result: 8

Q: Param readout= Ratio; system= Enterococcus faecium; entry= CN[C@H](CC(C)C)C(=O)N[C@H]1C(=O)N[C@@H](CC(N)=O)C(=O)N[C@H]2C(=O)N[C@H]3C(=O)N[C@H](C(=O)N[C@H](C(=O)NCCSSCCCCC[N+](C)(C)C)c4cc(O)cc(O)c4-c4cc3ccc4O)[C@H](O)c3ccc(c(Cl)c3)Oc3cc2cc(c3O[C@@H]2O[C@H](CO)[C@@H](O)[C@H](O)[C@H]2O[C@H]2C[C@](C)(N)[C@H](O)[C@H](C)O2)Oc2ccc(cc2Cl)[C@H]1O ; returns value.
Result: 8

Q: Param readout= Ratio; system= Enterococcus faecium; entry= CCCCCCSSCCNC(=O)[C@H]1NC(=O)[C@H]2NC(=O)[C@H](NC(=O)[C@@H]3NC(=O)[C@H](CC(N)=O)NC(=O)[C@H](NC(=O)[C@@H](CC(C)C)NC)[C@H](O)c4ccc(c(Cl)c4)Oc4cc3cc(c4O[C@@H]3O[C@H](CO)[C@@H](O)[C@H](O)[C@H]3O[C@H]3C[C@](C)(N)[C@H](O)[C@H](C)O3)Oc3ccc(cc3Cl)[C@H]2O)c2ccc(O)c(c2)-c2c(O)cc(O)cc21 ; returns value.
Result: 16

* * *

- System: Clostridioides difficile
- test-method-notes: Antibacterial activity against Clostridium difficile ATCC 43255 assessed as inhibition of bacterial growth by standard broth microdilution susceptibility method
- Assay type: functional
Quick list: MIC per entry.
Give a bare numeral; the unit µg/mL is implied.

Worked examples, 3 compounds total:
compound-smiles: CCCCCCCCCCCSSCCNC(=O)[C@H]1NC(=O)[C@H]2NC(=O)[C@H](NC(=O)[C@@H]3NC(=O)[C@H](CC(N)=O)NC(=O)[C@H](NC(=O)[C@@H](CC(C)C)NC)[C@H](O)c4ccc(c(Cl)c4)Oc4cc3cc(c4O[C@@H]3O[C@H](CO)[C@@H](O)[C@H](O)[C@H]3O[C@H]3C[C@](C)(N)[C@H](O)[C@H](C)O3)Oc3ccc(cc3Cl)[C@H]2O)c2ccc(O)c(c2)-c2c(O)cc(O)cc21
MIC [µg/mL]: 0.12
//
compound-smiles: CN[C@H](CC(C)C)C(=O)N[C@H]1C(=O)N[C@@H](CC(N)=O)C(=O)N[C@H]2C(=O)N[C@H]3C(=O)N[C@H](C(=O)N[C@H](C(=O)NCCSSCCN)c4cc(O)cc(O)c4-c4cc3ccc4O)[C@H](O)c3ccc(c(Cl)c3)Oc3cc2cc(c3O[C@@H]2O[C@H](CO)[C@@H](O)[C@H](O)[C@H]2O[C@H]2C[C@](C)(N)[C@H](O)[C@H](C)O2)Oc2ccc(cc2Cl)[C@H]1O
MIC [µg/mL]: 0.5
//
compound-smiles: CN[C@H](CC(C)C)C(=O)N[C@H]1C(=O)N[C@@H](CC(N)=O)C(=O)N[C@H]2C(=O)N[C@H]3C(=O)N[C@H](C(=O)N[C@H](C(=O)NCCSSCCCCCCCCCCC[N+](C)(C)C)c4cc(O)cc(O)c4-c4cc3ccc4O)[C@H](O)c3ccc(c(Cl)c3)Oc3cc2cc(c3O[C@@H]2O[C@H](CO)[C@@H](O)[C@H](O)[C@H]2O[C@H]2C[C@](C)(N)[C@H](O)[C@H](C)O2)Oc2ccc(cc2Cl)[C@H]1O
MIC [µg/mL]: 1

Q: Returns the measured MIC for the input compound. Input: CN[C@H](CC(C)C)C(=O)N[C@H]1C(=O)N[C@@H](CC(N)=O)C(=O)N[C@H]2C(=O)N[C@H]3C(=O)N[C@H](C(=O)N[C@H](C(=O)NCCSSCCNC(=O)CCS)c4cc(O)cc(O)c4-c4cc3ccc4O)[C@H](O)c3ccc(c(Cl)c3)Oc3cc2cc(c3O[C@@H]2O[C@H](CO)[C@@H](O)[C@H](O)[C@H]2O[C@H]2C[C@](C)(N)[C@H](O)[C@H](C)O2)Oc2ccc(cc2Cl)[C@H]1O
Result: 1

* * *

- Test system: Clostridioides difficile
- test-method-notes: Antibacterial activity against Clostridium difficile ATCC 43255 assessed as inhibition of bacterial growth by standard broth microdilution susceptibility method
- Assay type: functional
test-readout: MIC (µg/mL)
Give a bare numeral; the unit µg/mL is implied.

compound: CN[C@H](CC(C)C)C(=O)N[C@H]1C(=O)N[C@@H](CC(N)=O)C(=O)N[C@H]2C(=O)N[C@H]3C(=O)N[C@H](C(=O)N[C@H](C(=O)NCCCS)c4cc(O)cc(O)c4-c4cc3ccc4O)[C@H](O)c3ccc(c(Cl)c3)Oc3cc2cc(c3O[C@@H]2O[C@H](CO)[C@@H](O)[C@H](O)[C@H]2O[C@H]2C[C@](C)(N)[C@H](O)[C@H](C)O2)Oc2ccc(cc2Cl)[C@H]1O
measured: 0.12

Now for the compound whose MIC we want.
Q: Returns the measured MIC for the input compound. Input: CN[C@H](CC(C)C)C(=O)N[C@H]1C(=O)N[C@@H](CC(N)=O)C(=O)N[C@H]2C(=O)N[C@H]3C(=O)N[C@H](C(=O)N[C@H](C(=O)NCCSSCCNC(=O)CCCCC4CCSS4)c4cc(O)cc(O)c4-c4cc3ccc4O)[C@H](O)c3ccc(c(Cl)c3)Oc3cc2cc(c3O[C@@H]2O[C@H](CO)[C@@H](O)[C@H](O)[C@H]2O[C@H]2C[C@](C)(N)[C@H](O)[C@H](C)O2)Oc2ccc(cc2Cl)[C@H]1O (some centres not stated)
Result: 0.5

* * *

- Test system: Clostridioides difficile
- test-method-notes: Antibacterial activity against Clostridium difficile ATCC 43255 assessed as inhibition of bacterial growth by standard broth microdilution susceptibility method
- Format: functional
test-readout: MIC (µg/mL)
Give a bare numeral; the unit µg/mL is implied.

molecule: CN[C@H](CC(C)C)C(=O)N[C@H]1C(=O)N[C@@H](CC(N)=O)C(=O)N[C@H]2C(=O)N[C@H]3C(=O)N[C@H](C(=O)N[C@H](C(=O)NCCCCCS)c4cc(O)cc(O)c4-c4cc3ccc4O)[C@H](O)c3ccc(c(Cl)c3)Oc3cc2cc(c3O[C@@H]2O[C@H](CO)[C@@H](O)[C@H](O)[C@H]2O[C@H]2C[C@](C)(N)[C@H](O)[C@H](C)O2)Oc2ccc(cc2Cl)[C@H]1O
uom: µg/mL
MIC: 0.06

Q: Returns the measured MIC for the input molecule. Input: CN[C@H](CC(C)C)C(=O)N[C@H]1C(=O)N[C@@H](CC(N)=O)C(=O)N[C@H]2C(=O)N[C@H]3C(=O)N[C@H](C(=O)N[C@H](C(=O)NCCCCCNC(=O)CCCCC4CCSS4)c4cc(O)cc(O)c4-c4cc3ccc4O)[C@H](O)c3ccc(c(Cl)c3)Oc3cc2cc(c3O[C@@H]2O[C@H](CO)[C@@H](O)[C@H](O)[C@H]2O[C@H]2C[C@](C)(N)[C@H](O)[C@H](C)O2)Oc2ccc(cc2Cl)[C@H]1O (stereo partly drawn)
Result: 0.06

Value source: ChEMBL document CHEMBL5143550
